The next entries give measured IC50 for Cytochrome P450 3A4 (Homo sapiens).

• C#CC1(NC(=O)C(=O)c2c(C)c(C(=O)Nc3ccc(F)c(C#N)c3)n(C)c2C)COC1 = > 50 µM

Proceeding to the next molecule to report its IC50.
Sample "C#CC1(N(COP(=O)([O-])[O-])C(=O)C(=O)c2c(C)c(C(=O)Nc3ccc(F)c(C#N)c3)n(C)c2C)COC1.[Na+].[Na+]" — what was its IC50?
> 100 µM

----------
# ASSAY: Volume of distribution at steady state in C57BL/6J mouse at 1 mg/kg, iv by LC-MS/MS analysis
# Format: ADME, organism-based
# SETUP CONDITIONS: in vivo, read-out: Vdss
MEASURED METRIC: Vd (L/kg)
# number only, unit L/kg dropped from output

Vd for "C#CC1(NC(=O)C(=O)c2c(C)c(C(=O)Nc3ccc(F)c(C#N)c3)n(C)c2C)COC1" ?
1
